Data provenance is patent US20230134571A1.

experimental-system: HIV Env of isolate AC10.0.29 (clade B) (HIV)
test: cell-based or functional assay
recorded-metric: IC50 (µg/ml) with constrains (µg/mL)

- binder: "PGDM1400 (antibody, V domains shown) VH: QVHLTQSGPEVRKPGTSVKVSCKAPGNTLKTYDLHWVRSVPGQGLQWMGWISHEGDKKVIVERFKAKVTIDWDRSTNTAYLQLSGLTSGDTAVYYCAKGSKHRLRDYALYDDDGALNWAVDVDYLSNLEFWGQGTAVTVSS VL: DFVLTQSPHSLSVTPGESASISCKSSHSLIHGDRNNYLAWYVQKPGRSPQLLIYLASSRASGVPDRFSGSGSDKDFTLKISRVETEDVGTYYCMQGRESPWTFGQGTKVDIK"
  measured-number: 0.549
- binder: "ePGDM9 (antibody, V domains shown) VH: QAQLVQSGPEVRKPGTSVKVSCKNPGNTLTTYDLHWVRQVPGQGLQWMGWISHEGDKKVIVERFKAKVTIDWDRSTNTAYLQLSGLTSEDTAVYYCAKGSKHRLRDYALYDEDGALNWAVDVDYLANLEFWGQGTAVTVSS VL: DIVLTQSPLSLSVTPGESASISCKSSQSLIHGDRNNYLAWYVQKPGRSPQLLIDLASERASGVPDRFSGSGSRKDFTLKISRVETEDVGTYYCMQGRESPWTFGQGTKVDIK"
  measured-number: 0.074
- binder: "ePGDM13 (antibody, V domains shown) VH: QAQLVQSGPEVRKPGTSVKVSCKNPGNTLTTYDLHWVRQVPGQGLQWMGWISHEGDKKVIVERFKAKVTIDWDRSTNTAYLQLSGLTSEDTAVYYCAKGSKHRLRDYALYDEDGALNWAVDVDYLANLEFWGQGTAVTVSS VL: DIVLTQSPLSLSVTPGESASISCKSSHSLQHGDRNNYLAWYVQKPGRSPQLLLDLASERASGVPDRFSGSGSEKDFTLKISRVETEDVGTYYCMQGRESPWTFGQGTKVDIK"
  measured-number: 0.194
- binder: "ePGDM5 (antibody, V domains shown) VH: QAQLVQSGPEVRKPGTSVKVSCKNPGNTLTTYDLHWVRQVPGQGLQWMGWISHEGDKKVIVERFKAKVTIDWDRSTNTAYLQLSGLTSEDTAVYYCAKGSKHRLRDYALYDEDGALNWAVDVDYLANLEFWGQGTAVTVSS VL: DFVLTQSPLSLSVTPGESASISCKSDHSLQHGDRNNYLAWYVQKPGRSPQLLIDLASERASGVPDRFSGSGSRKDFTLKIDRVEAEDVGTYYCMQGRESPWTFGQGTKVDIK"
  measured-number: 0.275
